# method_summary: P. aeruginosa biofilm formation inhibitors, primary screen, strain PAO1, LB-PBS medium, absorbance 600 nm (AID 1176); further: test concentration not given here
# setup_conditions: P. aeruginosa PAO1 growth/biofilm, A600, 12 h; higher = more signal
Calls of active or inactive are those of the source. How the calls were made is not given here.
endpoint: z-score

Request: What does the record list as z-score for "CC(C)C(=O)N[C@H]1CCCN1C(=O)C=Cc1ccccc1" ?
Response: 0.897 (inactive)

Request: What does the record list as z-score for "CC(=O)OC[C@H]1O[C@H](CC=NOCC[C@@H]2C=C[C@H](OC(C)=O)[C@@H](COC(C)=O)O2)C=C[C@@H]1OC(C)=O" ?
Response: 0.229 (inactive)

Request: What does the record list as z-score for "COC(=O)CC=C1c2ccccc2[C@H](OC)[C@H]1C" ?
Response: -0.245 (inactive)

Request: What does the record list as z-score for "CCN1C(=O)[C@H]2[C@H]3[C@H](O)[C@H](O)CC(=NO[C@H](C)c4cn([C@@H]5COC[C@H]5O)nn4)[C@@H]3CC[C@H]2C1=O" ?
Response: 1.46 (inactive)

Request: What does the record list as z-score for "CO[C@H]1COC(=O)[C@H](CCSC)NC(=O)CC=C[C@@H](C)[C@H](OC)COC(=O)[C@@H](OCc2ccccc2)C=C[C@@H]1C" ?
Response: -1.38 (inactive)

Request: What does the record list as z-score for "O=C1C=C[C@@H](O)[C@@H]2[C@@H]3C(=O)N(Cc4ccccc4)C(=O)[C@@H]3CC[C@@H]12" ?
Response: 0.647 (inactive)

Request: What does the record list as z-score for COC(=O)[C@H](C)NC(=O)CCC1CC(OC(=O)NCc2cccc3ccccc23)CC2(CCCC(COC(=O)NCCc3ccccc3OC)O2)O1 (stereo partly drawn) ?
Response: 0.639 (inactive)

Request: What does the record list as z-score for "CON(C)C(=O)c1nnc2c(n1)[nH]c1ccccc12" ?
Response: 0.131 (inactive)

Request: What does the record list as z-score for "C[C@H]1CC[C@@H](C(=O)O)N[C@@H]1c1ccc(C#Cc2ccccc2)cc1" ?
Response: -0.446 (inactive)

Request: What does the record list as z-score for C[C@H]1CC[C@H]2C(=O)OC(COc3ccc(C(C)(C)C)cc3)CN2[C@@H]1c1ccc(Br)cc1 (stereo partly drawn) ?
Response: 1.18 (inactive)

Request: What does the record list as z-score for "CC(C)=CCCC(C)=CCON=C1C[C@@H](O)[C@@H](O)[C@@H]2[C@@H]3C(=O)N([C@@H](C)c4ccccc4)C(=O)[C@@H]3CC[C@@H]12" ?
Response: 0.283 (inactive)

Request: What does the record list as z-score for CCOC(=O)[C@H](Cc1ccccc1)NC(=O)CCC1CC(OC(=O)NCc2cccc3ccccc23)CC2(CCCC(COC(=O)NCc3ccc4c(c3)OCO4)O2)O1 (stereo partly drawn) ?
Response: -0.373 (inactive)

Request: What does the record list as z-score for "COC(=O)[C@H](C)NC(=O)CC=C[C@@H](C)[C@@H]1C=C[C@H](O)[C@@H](CO)O1" ?
Response: 0.25 (inactive)

Request: What does the record list as z-score for "CON=C(C)CCN1CCc2nc(-c3ccccc3)c(-c3ccccc3)cc2C1" ?
Response: 0.958 (inactive)

Request: What does the record list as z-score for "COc1ccc2c(c1)O[C@@H](c1cccc(C(F)(F)F)c1)[C@H](O)C2=O" ?
Response: 0.699 (inactive)

Request: What does the record list as z-score for "CC(C)=CCCC(C)=CCON=C1C[C@@H](O)[C@@H](O)[C@@H]2[C@@H]3C(=O)N(c4cccc(Oc5ccccc5)c4)C(=O)[C@@H]3CC[C@H]12" ?
Response: -0.0849 (inactive)

Request: What does the record list as z-score for "CCOC(=O)NN=C1C[C@@H](O)[C@@H](O)[C@@H]2[C@@H]3C(=O)N(CC)C(=O)[C@@H]3CC[C@H]12" ?
Response: 0.0578 (inactive)

Request: What does the record list as z-score for "O=C(NN=C1C[C@@H](O)[C@@H](O)[C@@H]2[C@@H]3C(=O)N(Cc4ccccc4)C(=O)[C@@H]3CC[C@H]12)OCc1ccccc1" ?
Response: 0.471 (inactive)

Request: What does the record list as z-score for "COC(=O)[C@@H]1CC[C@H](C)[C@@H](c2ccc(C)cc2)N1C(=O)c1ccc(C=NOC[C@H]2O[C@H](c3ccccc3)C=C[C@@H]2Oc2ccc(OC)cc2)cc1" ?
Response: 0.0282 (inactive)

Request: What does the record list as z-score for "COc1ccc(OC[C@@H](CO)OC)cc1" ?
Response: -0.364 (inactive)

Request: What does the record list as z-score for "C[C@H]1CC[C@H]2C(=O)O[C@H](CO)CN2[C@@H]1c1ccc(Br)cc1" ?
Response: 0.441 (inactive)

Request: What does the record list as z-score for "CO[C@H]1COC(=O)[C@H](C)COC(=O)[C@H](C)NC(=O)CC=C[C@H]1C" ?
Response: -0.826 (inactive)

Request: What does the record list as z-score for CC(=O)OC[C@H]1O[C@H](CC=NOC(C)CN2CCCCc3nc(C)c(C)cc32)C=C[C@@H]1OC(C)=O (stereo partly drawn) ?
Response: -0.266 (inactive)

Request: What does the record list as z-score for "COC(=O)[C@@H]1CC[C@H](C)[C@@H](c2ccc(Br)cc2)N1C[C@H](O)CN=[N+]=[N-]" ?
Response: 1.09 (inactive)

Request: What does the record list as z-score for "COc1cccc([C@H](O)Cn2cc(-c3ccc(CON=C(C)C)cc3)nn2)c1" ?
Response: 0.475 (inactive)

Request: What does the record list as z-score for "CC(C)[C@@H](OCc1ccccc1)[C@H](C)C=NOC[C@@H](O)[C@H]1O[C@@H]2OC(C)(C)O[C@@H]2[C@H]1O" ?
Response: 0.241 (inactive)

Request: What does the record list as z-score for "CCc1cc2c(nc1CC)CCN(CCC(C)=NOC[C@@H](C)[C@H](OCc1ccccc1)C(C)C)C2" ?
Response: -0.537 (inactive)

Request: What does the record list as z-score for COC(=O)CC=C[C@@H](C)[C@@H](C=NOC(C)CN1CCCc2nc(C)c(C)cc21)NS(=O)(=O)c1ccc(C)cc1 (stereo partly drawn) ?
Response: 0.253 (inactive)

Request: What does the record list as z-score for C=CCOCC1CN2[C@@H](CC[C@@H](C)[C@@H]2c2ccc(Br)cc2)C(=O)O1 (stereo partly drawn) ?
Response: 0.013 (inactive)

Request: What does the record list as z-score for "CON=C[C@@H](OC)[C@H](C)C=CCC(=O)OC" ?
Response: 0.0738 (inactive)

Request: What does the record list as z-score for "CCN1C(=O)[C@H]2[C@H]3[C@H](O)[C@H](O)CC(=NOCC(C)C)[C@H]3CC[C@H]2C1=O" ?
Response: -0.225 (inactive)

Request: What does the record list as z-score for CCOC(=O)[C@H](Cc1ccccc1)NC(=O)CCC1CC(OC(=O)NCc2cccc3ccccc23)CC2(CCCC(COC(=O)NCCc3ccc(Cl)cc3)O2)O1 (stereo partly drawn) ?
Response: 0.32 (inactive)

Request: What does the record list as z-score for "CC(CCC(=O)OC[C@H]1O[C@H](C#Cc2ccccc2)C=C[C@@H]1Oc1ccc(C)cc1)=NO[C@@H](C)c1cc(-c2c(C)cc(C)cc2C)no1" ?
Response: -0.798 (inactive)

Data provenance is PubChem BioAssay.
